Read-out: CYP4A11 (gene 1579)
Assay protocol: LTEA_HepaRG_CYP4A11: Life Technologies and Expression Analysis (LTEA) Assay for CYP4A11 using HepaRG (AID 2283486)
Condition: mRNA level, 48 h; actives raise or lower the signal
Method: LTEA_HepaRG is a cell based, multiplexed-readout assay that uses HepaRG, a human liver cell line, with measurements taken at 48 hours after chemical dosing on a 96-well plate.LTEA_HepaRG_CYP4A11 is one of 102 assay component(s) measured in the LTEA HepaRG cell culture assay. It is a marker of NR mediated metabolism.Data from the assay component LTEA_HepaRG_CYP4A11 was analyzed into 1 endpoint. […]
Active and inactive are the calls of the source. How the source made its calls: active means hit-call score of the fitted dose curve at least 0.9, where 1 is the maximum; inactive means score below 0.9.
Classes used: class 1 (active), class 0 (inactive)

>  <Compound>
CC(C1CC1)C(O)(Cn1cncn1)c1ccc(Cl)cc1 (configuration not stated)

>  <Qualitative label>
class 1

$$$$
>  <Compound>
Nc1nc(N)nc(NC2CC2)n1

>  <Qualitative label>
class 0

$$$$
>  <Compound>
COP(=O)(OC)SCn1c(=O)oc2cc(Cl)cnc21

>  <Qualitative label>
class 1

$$$$
>  <Compound>
COP(=O)(OC)OC(Br)C(Cl)(Cl)Br (configuration not stated)

>  <Qualitative label>
class 0

$$$$
>  <Compound>
O=c1ccc(=O)[nH][nH]1

>  <Qualitative label>
class 0

$$$$
>  <Compound>
CCCSP(=O)(OCC)Oc1ccc(Br)cc1Cl (configuration not stated)

>  <Qualitative label>
class 0

$$$$
>  <Compound>
Cc1ccn2nc(S(=O)(=O)Nc3c(F)cccc3F)nc2n1

>  <Qualitative label>
class 0

$$$$
>  <Compound>
CCCCSP(=O)(SCCCC)SCCCC

>  <Qualitative label>
class 1

$$$$
>  <Compound>
CCc1cnc(C2=NC(C)(C(C)C)C(=O)N2)c(C(=O)O)c1 (configuration not stated)

>  <Qualitative label>
class 0

$$$$
>  <Compound>
CCOC(=O)CC(SP(=O)(OC)OC)C(=O)OCC (configuration not stated)

>  <Qualitative label>
class 0

$$$$
>  <Compound>
CCC(CC)Nc1c([N+](=O)[O-])cc(C)c(C)c1[N+](=O)[O-]

>  <Qualitative label>
class 0

$$$$
>  <Compound>
CC(=NC#N)N(C)Cc1ccc(Cl)nc1

>  <Qualitative label>
class 0

$$$$
>  <Compound>
C[Si](Cn1cncn1)(c1ccc(F)cc1)c1ccc(F)cc1

>  <Qualitative label>
class 1

$$$$
>  <Compound>
CC1(C(=O)Nc2ccc(O)c(Cl)c2Cl)CCCCC1

>  <Qualitative label>
class 0

$$$$
>  <Compound>
O=C(O)c1cc(Oc2ccc(C(F)(F)F)cc2Cl)ccc1[N+](=O)[O-]

>  <Qualitative label>
class 1

$$$$
>  <Compound>
CCOP(=O)(NC(C)C)Oc1ccc(SC)c(C)c1 (configuration not stated)

>  <Qualitative label>
class 1

$$$$
>  <Compound>
O=[N+]([O-])c1cc(C(F)(F)F)c(Cl)c([N+](=O)[O-])c1Nc1ncc(C(F)(F)F)cc1Cl

>  <Qualitative label>
class 1

$$$$

----------
Assay protocol: IUF_NPC2-5_cytotoxicity_120hr: Cytotoxicity Assessment at 120 hours in the Leibniz Research Institute for Environmental Medicine (IUF) Neural Progenitor Cell Migration and Differentiation Assay (NPC2-5) (AID 2284307);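 on AC50: LDH released into supernatant as membrane damage marker via resorufin fluorescence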
The source made the active and inactive calls. Rule for the calls: active = hit-call score of the fitted dose curve at least 0.9, where 1 is the maximum; inconclusive = response in the unintended direction; inactive = score below 0.9.

>  <Compound>
COP(=O)(OC)OC(Br)C(Cl)(Cl)Br (stereo not given)

>  <AC50>
70.1 µM (active)

$$$$
>  <Compound>
C=C(C)[C@H]1Cc2c(ccc3c2O[C@@H]2COc4cc(OC)c(OC)cc4[C@@H]2C3=O)O1

>  <AC50>
inactive

$$$$
>  <Compound>
O=[N+]([O-])c1cc(C(F)(F)F)c(Cl)c([N+](=O)[O-])c1Nc1ncc(C(F)(F)F)cc1Cl

>  <AC50>
1.08 µM (active)

$$$$
>  <Compound>
CCOP(=S)(OCC)SCCSCC

>  <AC50>
inactive

$$$$
>  <Compound>
CCOP(=O)(NC(C)C)Oc1ccc(SC)c(C)c1 (stereo not given)

>  <AC50>
inactive

$$$$
>  <Compound>
CC(C)N(C(=O)SCC(Cl)=C(Cl)Cl)C(C)C

>  <AC50>
inactive

$$$$
>  <Compound>
CCOP(=O)(OCC)Oc1cc(C)nc(C(C)C)n1

>  <AC50>
inactive

$$$$
>  <Compound>
CCOP(=S)(OCC)OC(Cl)C(Cl)(Cl)Cl (stereo not given)

>  <AC50>
inactive

$$$$
>  <Compound>
CCOP(=S)(Oc1cnc(C(C)(C)C)nc1)OC(C)C (stereo not given)

>  <AC50>
inactive

$$$$
>  <Compound>
COP(=O)(OC)C(O)C(Cl)(Cl)Cl (stereo not given)

>  <AC50>
inactive

$$$$

----------
Assay protocol: ATG_ERE_CIS: Attagene CIS-FACTORIAL HepG2 Assay for Estrogen Response Element (ERE) (AID 2282940)
Condition: HepG2 ERE cis-reporter, Attagene RNA transcript; actives raise or lower the signal
Calls of active or inactive are those of the source. How the source made its calls: active means hit-call score of the fitted dose curve at least 0.9, where 1 is the maximum; inactive means score below 0.9.
Classes used: TRUE = active, FALSE = inactive

>  <Compound>
CNC(=O)Oc1cccc2c1OC(C)(C)O2

>  <Qualitative label>
TRUE

$$$$
>  <Compound>
Cc1cc(C2CC2)nc(Nc2ccccc2)n1

>  <Qualitative label>
TRUE

$$$$
>  <Compound>
CSc1nc(NC(C)C)nc(NC(C)C)n1

>  <Qualitative label>
FALSE

$$$$
>  <Compound>
CCCCOC(=O)[C@@H](C)Oc1ccc(Oc2ccc(C#N)cc2F)cc1

>  <Qualitative label>
FALSE

$$$$
>  <Compound>
Nc1c(Cl)cc([N+](=O)[O-])cc1Cl

>  <Qualitative label>
TRUE

$$$$
>  <Compound>
COP(=O)(OC)OC(Br)C(Cl)(Cl)Br (configuration not stated)

>  <Qualitative label>
FALSE

$$$$
>  <Compound>
CCc1cccc(CC)c1N(COC)C(=O)CCl

>  <Qualitative label>
FALSE

$$$$

----------
Tested system: guinea pig Serotonin, 5-Hydroxytryptamine Receptor 4 (5HT4), HTR4 (gene 100135548)
Assay protocol: NVS_GPCR_g5HT4: NovaScreen (NVS) G Protein-Coupled Receptor Assay for guinea pig Serotonin, 5-Hydroxytryptamine Receptor 4 (5HT4) (AID 2283294)
Records with an inconclusive call do not appear. The source made the active and inactive calls. The calls were made as follows: active = hit-call score of the fitted dose curve at least 0.9, where 1 is the maximum; inconclusive = response in the unintended direction; inactive = score below 0.9.
Measure: AC50

>  <Smiles structure>
CC[C@H](C)[C@H]1O[C@]2(C=C[C@@H]1C)C[C@@H]1C[C@@H](C/C=C(\C)[C@@H](O[C@H]3C[C@H](OC)[C@@H](O[C@H]4C[C@H](OC)[C@@H](NC)[C@H](C)O4)[C@H](C)O3)[C@@H](C)/C=C/C=C3\CO[C@@H]4[C@H](O)C(C)=C[C@@H](C(=O)O1)[C@]34O)O2

>  <Tested system>
guinea pig Serotonin, 5-Hydroxytryptamine Receptor 4 (5HT4), HTR4 (gene 100135548)

>  <Endpoint value>
21.4 µM (active)

$$$$
>  <Smiles structure>
CCCOCC(=Nc1ccc(Cl)cc1C(F)(F)F)n1ccnc1

>  <Tested system>
guinea pig Serotonin, 5-Hydroxytryptamine Receptor 4 (5HT4), HTR4 (gene 100135548)

>  <Endpoint value>
inactive

$$$$
>  <Smiles structure>
CC(C)[C@H](C(=O)O[C@H](C#N)c1cccc(Oc2ccccc2)c1)c1ccc(Cl)cc1

>  <Tested system>
guinea pig Serotonin, 5-Hydroxytryptamine Receptor 4 (5HT4), HTR4 (gene 100135548)

>  <Endpoint value>
inactive

$$$$
>  <Smiles structure>
CSc1nc(NC(C)C)nc(NC(C)C)n1

>  <Tested system>
guinea pig Serotonin, 5-Hydroxytryptamine Receptor 4 (5HT4), HTR4 (gene 100135548)

>  <Endpoint value>
inactive

$$$$

----------
Tested system: Peroxisome proliferator-activated receptor gamma (Homo sapiens)
Assay protocol: ATG_PPARg_TRANS: Attagene TRANS-FACTORIAL HepG2 Assay for human Peroxisome Proliferator-activated Receptor-gamma (PPARg) (AID 2283007)
Inconclusive results are not listed. Calls of active or inactive are those of the source. Rule for the calls: active = hit-call score of the fitted dose curve at least 0.9, where 1 is the maximum; inconclusive = response in the unintended direction; inactive = score below 0.9.
Classes used: yes (1) (active), no (0) (inactive)

>  <Molecule>
CC(Oc1cccc(Cl)c1)C(=O)O (stereo unspecified)

>  <Qualitative label>
no (0)

$$$$
>  <Molecule>
CCCCOC(=O)[C@@H](C)Oc1ccc(Oc2ccc(C#N)cc2F)cc1

>  <Qualitative label>
no (0)

$$$$
>  <Molecule>
CCc1cccc(CC)c1N(COC)C(=O)CCl

>  <Qualitative label>
yes (1)

$$$$
>  <Molecule>
COP(=O)(OC)SCn1c(=O)oc2cc(Cl)cnc21

>  <Qualitative label>
yes (1)

$$$$
>  <Molecule>
COc1cccc(C(=O)NN(C(=O)c2cc(C)cc(C)c2)C(C)(C)C)c1C

>  <Qualitative label>
no (0)

$$$$
>  <Molecule>
CCOP(=S)(OCC)OC(Cl)C(Cl)(Cl)Cl (stereo unspecified)

>  <Qualitative label>
no (0)

$$$$
>  <Molecule>
CN1COCN(Cc2cnc(Cl)s2)C1=N[N+](=O)[O-]

>  <Qualitative label>
no (0)

$$$$
>  <Molecule>
Cc1ccn2nc(S(=O)(=O)Nc3c(F)cccc3F)nc2n1

>  <Qualitative label>
no (0)

$$$$
>  <Molecule>
CC(C)[C@H](C(=O)O[C@H](C#N)c1cccc(Oc2ccccc2)c1)c1ccc(Cl)cc1

>  <Qualitative label>
yes (1)

$$$$
>  <Molecule>
CCOP(=S)(Oc1cnc(C(C)(C)C)nc1)OC(C)C (stereo unspecified)

>  <Qualitative label>
no (0)

$$$$
>  <Molecule>
COc1ccc(C(=CC(=O)N2CCOCC2)c2ccc(Cl)cc2)cc1OC

>  <Qualitative label>
no (0)

$$$$
>  <Molecule>
COP(=O)(NC(C)=O)SC (stereo unspecified)

>  <Qualitative label>
no (0)

$$$$
>  <Molecule>
COP(=O)(OC)C(O)C(Cl)(Cl)Cl (stereo unspecified)

>  <Qualitative label>
yes (1)

$$$$
>  <Molecule>
CC(COc1ccc(Oc2ccccc2)cc1)Oc1ccccn1 (stereo unspecified)

>  <Qualitative label>
yes (1)

$$$$
>  <Molecule>
CCCSP(=O)(OCC)Oc1ccc(Br)cc1Cl (stereo unspecified)

>  <Qualitative label>
no (0)

$$$$
>  <Molecule>
S=C1NCCN1

>  <Qualitative label>
no (0)

$$$$
>  <Molecule>
O=C(O)c1cc(Oc2ccc(C(F)(F)F)cc2Cl)ccc1[N+](=O)[O-]

>  <Qualitative label>
yes (1)

$$$$
>  <Molecule>
O=c1ccc(=O)[nH][nH]1

>  <Qualitative label>
no (0)

$$$$
>  <Molecule>
CNC(=O)ON=C(C)SC

>  <Qualitative label>
no (0)

$$$$
>  <Molecule>
CNC(=O)ON=C(SC)C(=O)N(C)C

>  <Qualitative label>
no (0)

$$$$
>  <Molecule>
CCCCSP(=O)(SCCCC)SCCCC

>  <Qualitative label>
yes (1)

$$$$
>  <Molecule>
C=C(C)[C@H]1Cc2c(ccc3c2O[C@@H]2COc4cc(OC)c(OC)cc4[C@@H]2C3=O)O1

>  <Qualitative label>
no (0)

$$$$
>  <Molecule>
CC(C1CC1)C(O)(Cn1cncn1)c1ccc(Cl)cc1 (stereo unspecified)

>  <Qualitative label>
no (0)

$$$$
>  <Molecule>
CCOP(=O)(OCC)Oc1cc(C)nc(C(C)C)n1

>  <Qualitative label>
no (0)

$$$$
>  <Molecule>
CCCOCC(=Nc1ccc(Cl)cc1C(F)(F)F)n1ccnc1

>  <Qualitative label>
yes (1)

$$$$
>  <Molecule>
CCC(=O)Nc1ccc(Cl)c(Cl)c1

>  <Qualitative label>
no (0)

$$$$
